Reference source for all entries: paper PMC10682101

Target: human LPA2 receptor (Homo sapiens, UniProt Q9HBW0)
Sequence (Q9HBW0 whole entry): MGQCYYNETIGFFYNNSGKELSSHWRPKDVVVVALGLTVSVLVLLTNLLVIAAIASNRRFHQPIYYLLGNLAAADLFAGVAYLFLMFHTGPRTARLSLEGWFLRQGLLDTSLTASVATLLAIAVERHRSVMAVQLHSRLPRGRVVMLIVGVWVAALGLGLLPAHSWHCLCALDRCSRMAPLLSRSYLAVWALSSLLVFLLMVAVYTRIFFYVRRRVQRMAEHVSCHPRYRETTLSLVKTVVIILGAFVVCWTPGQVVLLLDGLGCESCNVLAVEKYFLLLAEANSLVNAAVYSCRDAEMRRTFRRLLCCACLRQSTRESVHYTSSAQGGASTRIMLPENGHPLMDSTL
Experiment: Dynamic mass redistribution (DMR) assay in CHOLPA2 cells
Conditions: CHOLPA2 cells; compound 10 μM; mean ± s.e.m.
parameter: DMR response (pm)

Some molecules with recorded DMR response:
>>> number("O=C1C[C@@](O)(C(F)(F)F)c2c(-c3cccc(F)c3)n[nH]c2N1")
"−119"
>>> number("Cc1noc(-c2ccc(-c3ccc(C4(C(=O)O)CC4)cc3)cc2)c1NC(=O)O[C@H](C)c1ccccc1")
"−79"

(P) Cc1nnn(-c2ccc(-c3ccc(C4(C(=O)O)CC4)cc3)cc2)c1NC(=O)O[C@H](C)c1ccccc1
(Q) Cc1noc(-c2ccc(CSCCC(=O)O)cc2)c1NC(=O)OC(C)c1ccccc1Cl (centres unmarked)
(R) Cc1noc(-c2ccc(O[C@H]3CC[C@@H](C(=O)O)CC3)cc2)c1NC(=O)O[C@H](C)c1ccccc1Cl
Please list these molecules in decreasing order of DMR response. Please, when replying, give the labels in the order that was requested.
P, R, Q
